Tested on: rabbit skeletal myofibrils (approximately 90% fast fibers)
experiment.description: Activation of fast skeletal myofibrils (PUMA coupled-enzyme ATPase assay at pCa25)
Type: biochemical
condition.description: concentration at which the compound increased the enzymatic activity by 40%; calcium at pCa25; PM12 buffer pH 6.8
From the text: Preparation of fast skeletal myofibrils. […] Activation of Fast Skeletal Myofibrils. […] This assay regenerates myosin-produced ADP into ATP by oxidizing NADH, producing an absorbance change at 340 nm. […]
measure: Mean AC1.4

Oc1ncccc1-c1cnc(NC[C@]2(c3ncccc3F)C[C@H](F)C2)nc1; C (C=10-20 uM)
CCNC(=O)c1cnc(NCC2(c3ncccc3F)CCC2)nc1; D (D=>20 uM)
O=C(Nc1cccnc1)c1cnc(NCC2(c3ncccc3F)CCC2)nc1; C (C=10-20 uM)
NC(=O)c1cc(-c2cnc(NC[C@]3(c4ncccc4F)C[C@H](F)C3)nc2)ccc1O; A (A=<1 uM)
NC(=O)c1n[nH]c2ccc(-c3cnc(NC4(c5ncccc5F)CCC4)nc3)cc12; A (A=<1 uM)
NC(=O)c1ccccc1-c1cnc(NC[C@]2(c3ncccc3F)C[C@H](F)C2)nc1; C (C=10-20 uM)
NC(=O)c1ccc(F)c(-c2cnc(N[C@]3(c4ncccc4Cl)C[C@H](F)C3)nc2)c1; A (A=<1 uM)
CC(C)(Nc1ncc(-c2cccc(C(N)=O)c2)cn1)c1ccccc1S(C)(=O)=O; D (D=>20 uM)
CC(C)(CNc1ncc(Br)cn1)c1ccc(F)cc1; D (D=>20 uM)
Nc1ccnn1C(=O)c1cnc(NCC2(c3ncccc3F)CCC2)nc1; C (C=10-20 uM)

# lookup: Mean AC1.4 of `N#Cc1cc(-c2cnc(NC3(c4ncccc4F)CCC3)nc2)ccn1`
D (D=>20 uM)

Let us now turn to `CC(C)(Nc1ncc(-c2cn3c(C(N)=O)csc3n2)cn1)c1ncccc1Cl`
B (B=1-10 uM)

How about this molecule: `Cn1nc(C(N)=O)cc1-c1cnc(NC(C)(C)c2ncccc2Cl)nc1`
D (D=>20 uM)

What about `O=C(Nc1ccon1)c1cnc(NCC2(c3ncccc3F)CCC2)nc1` ?
B (B=1-10 uM)

For `COC(=O)c1ccc(O)c(-c2cnc(NC[C@]3(c4ncccc4F)C[C@H](F)C3)nc2)c1` then?
A (A=<1 uM)
